tested-target: human adenosine A2A receptor (Homo sapiens)
Construct: expressed in transfected cells; host or cells: CHO cells, Semliki Forest virus expression system; membrane preparation
Sequence (P29274 whole entry): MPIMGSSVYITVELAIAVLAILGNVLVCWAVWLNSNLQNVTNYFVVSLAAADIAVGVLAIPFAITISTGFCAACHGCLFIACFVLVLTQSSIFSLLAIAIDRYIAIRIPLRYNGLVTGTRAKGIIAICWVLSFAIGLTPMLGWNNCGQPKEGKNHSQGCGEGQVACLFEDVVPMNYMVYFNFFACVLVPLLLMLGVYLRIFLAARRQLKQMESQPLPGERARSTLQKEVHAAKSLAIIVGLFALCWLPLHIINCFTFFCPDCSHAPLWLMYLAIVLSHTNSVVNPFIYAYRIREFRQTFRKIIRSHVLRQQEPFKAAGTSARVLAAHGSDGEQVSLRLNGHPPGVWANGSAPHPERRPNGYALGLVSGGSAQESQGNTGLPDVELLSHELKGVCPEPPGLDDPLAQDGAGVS
assay-info: Human adenosine A2A receptor [3H]-SCH-58261 binding assay
condition-label: ratio KiHA1 divided by KiHA2A
In this section, each of the compounds is paired with its reported selectivity (A1/A2a).
Keep it simple and answer with nothing but the number.

Answered cases to consult:
Field selectivity (A1/A2a) (entry CN(C)C(=O)C1CCCN1C(=O)c1cc(N)n2nc(-c3ccc(Br)o3)nc2c1 (stereo not drawn) [Example 390] ) reads 98

Entry C=CCN(C(=O)c1cc(N)n2nc(-c3ccccn3)nc2c1)C1CCCC1 [Example 429] , selectivity (A1/A2a) reported as 15.3

Lookup result for COC[C@@H]1CCCN1C(=O)c1cc(N)n2nc(-c3ccccn3)nc2c1 [Example 426] ; measured selectivity (A1/A2a): 17.2

---
For CC1CC(C)CN(C(=O)c2cc(N)n3nc(-c4ccccn4)nc3c2)C1 (stereo not drawn) [Example 423] the compound record lists selectivity (A1/A2a) as 24.6

Lab note: CCN(CCOC)C(=O)c1cc(N)n2nc(-c3nccs3)nc2c1 [Example 498] gave selectivity (A1/A2a) of 21

Quick note, selectivity (A1/A2a) for CCC1CCC(C)N(C(=O)c2cc(N)n3nc(-c4nccs4)nc3c2)C1 (stereo not drawn) [Example 404] landed at 13.3

Data point: CCC1CCC(C)N(C(=O)c2cc(N)n3nc(-c4ccc(Br)o4)nc3c2)C1 (stereo not drawn) [Example 393] ; selectivity (A1/A2a) = 32.9

Looking up CCN(C(=O)c1cc(N)n2nc(-c3nccs3)nc2c1)C1CCCCC1 [Example 383] , I see its selectivity (A1/A2a) listed as 13.9

Reported selectivity (A1/A2a) for Nc1cc(C(=O)N2CCCCCC2)cc2nc(-c3ccccn3)nn12 [Example 417] was 31.5

Entry under test: Nc1cc(C(=O)N2CC=CC2)cc2nc(-c3ccccn3)nn12 [Example 408] . Its selectivity (A1/A2a) was 14.9

Looking up CC(=O)NC1CCN(C(=O)c2cc(N)n3nc(-c4ccc(Br)o4)nc3c2)C1 (stereo not drawn) [Example 391] , I found its selectivity (A1/A2a) recorded as 27.6

The recorded selectivity (A1/A2a) for CC(=O)N(C)C1CCN(C(=O)c2cc(N)n3nc(-c4nccs4)nc3c2)C1 (stereo not drawn) [Example 403] is 15.6

selectivity (A1/A2a) measured on COCCN(C)C(=O)c1cc(N)n2nc(-c3nccs3)nc2c1 [Example 397] = 18.4

For this compound ( C=CCN(CC=C)C(=O)c1cc(N)n2nc(-c3ccccn3)nc2c1 [Example 416] ), measured selectivity (A1/A2a) is 17.4

Measured selectivity (A1/A2a), CCCN(CC1CC1)C(=O)c1cc(N)n2nc(-c3ccccn3)nc2c1 [Example 424] : 17.7

The reported selectivity (A1/A2a) of the compound COC[C@@H]1CC[C@@H](COC)N1C(=O)c1cc(N)n2nc(-c3ccc(Br)o3)nc2c1 [Example 387] was 21.5

selectivity (A1/A2a) reading for CCN(CCOC)C(=O)c1cc(N)n2nc(-c3ccc(Br)o3)nc2c1 [Example 396] : 48.7

The value of selectivity (A1/A2a) measured for the compound NC(=O)[C@@H]1CCCN1C(=O)c1cc(N)n2nc(-c3ccc(Br)o3)nc2c1 [Example 388] turned out to be 12.4
